Exercise: state measured viability, T/C for each of the compounds provided.
tested on: DMS-114 complex spheroids with HUVEC/MSC, growth % test/control; test: Anticancer human tumor DMS-114 cell line growth inhibition [AhR]; details: second compound 1 µM; first compound 3.16 µM; active compounds read low;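 further: spheroids exposed to agents for 7 days before readout; 100% = DMSO vehicle control wells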
Answers are plain numbers, in %.

compound	viability, T/C [%]
COc1ccc([C@@H](O)c2cc(-c3ncnc4cc(N5CCOCC5)ccc34)c(F)cc2Cl)nn1 + Cc1cncc(-c2nc(NCCc3c[nH]c4ccccc34)c3ncn(C(C)C)c3n2)c1	94.4

Below are some compounds; for each one, tell me its viability, T/C.
1. NS(=O)(=O)OCC1CC(n2ccc3c(NC4CCc5ccccc54)ncnc32)CC1O (configuration not stated) + CC(CO)NC(=O)c1cc(-c2ccc(Cl)cc2)nn(-c2cnn(C)c2)c1=O
2. Nc1ccn(C2OC(CO)C(O)C2(F)F)c(=O)n1 (configuration not stated) + Cc1cncc(-c2nc(NCCc3c[nH]c4ccccc34)c3ncn(C(C)C)c3n2)c1
3. COc1cc(C2c3cc4c(cc3C(OC3OC5COC(C)OC5C(O)C3O)C3COC(=O)C23)OCO4)cc(OC)c1O (configuration not stated) + Cc1ccccc1N=Nc1ccc(NC(=O)c2ccnn2C)c(C)c1
4. O=C(C=Cc1cccc(S(=O)(=O)Nc2ccccc2)c1)NO + Cc1cncc(-c2nc(NCCc3c[nH]c4ccccc34)c3ncn(C(C)C)c3n2)c1
5. NS(=O)(=O)OCC1CC(n2ccc3c(NC4CCc5ccccc54)ncnc32)CC1O (configuration not stated) + Cc1cncc(-c2nc(NCCc3c[nH]c4ccccc34)c3ncn(C(C)C)c3n2)c1
6. Nc1ccn(C2OC(CO)C(O)C2(F)F)c(=O)n1 (configuration not stated) + Cc1ccccc1N=Nc1ccc(NC(=O)c2ccnn2C)c(C)c1

[7.56, 8.86, 43.6, 10.7, 4.06, 26.4]

###

system: DMS-114 complex spheroids with HUVEC/MSC, growth % test/control; assay: Anticancer human tumor DMS-114 cell line growth inhibition [AhR]; settings: second compound 0.1 µM; first compound 0.1 µM; active compounds read low;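 further: spheroids exposed to agents for 7 days before readout; 100% = DMSO vehicle control wells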
Entries whose viability, T/C is below 80% take yes (1); entries at or above 80% take no (0).

compound	answer_label
Nc1ccn(C2OC(CO)C(O)C2(F)F)c(=O)n1 (stereo not drawn) + CC(CO)NC(=O)c1cc(-c2ccc(Cl)cc2)nn(-c2cnn(C)c2)c1=O	yes (1)
Nc1ccccc1NC(=O)c1ccc(CNC(=O)OCc2cccnc2)cc1 + Cc1ccccc1N=Nc1ccc(NC(=O)c2ccnn2C)c(C)c1	no (0)
CC[C@@]1(O)C(=O)OCc2c1cc1n(c2=O)Cc2cc3c(CN(C)C)c(O)ccc3nc2-1 + Cc1cncc(-c2nc(NCCc3c[nH]c4ccccc34)c3ncn(C(C)C)c3n2)c1	yes (1)
CC1COCCN1c1cc(C2(S(C)(=N)=O)CC2)nc(-c2ccnc3[nH]ccc23)n1 (stereo not drawn) + CC(CO)NC(=O)c1cc(-c2ccc(Cl)cc2)nn(-c2cnn(C)c2)c1=O	no (0)
COc1cccc2c1C(=O)c1c(O)c3c(c(O)c1C2=O)CC(O)(C(=O)CO)CC3OC1CC(N)C(O)C(C)O1 (stereo not drawn) + Cc1ccccc1N=Nc1ccc(NC(=O)c2ccnn2C)c(C)c1	yes (1)

From here, focus on the item given below.
Say whether its viability, T/C is strictly beneath 80%. Entry: COc1ccc([C@@H](O)c2cc(-c3ncnc4cc(N5CCOCC5)ccc34)c(F)cc2Cl)nn1 + CC(CO)NC(=O)c1cc(-c2ccc(Cl)cc2)nn(-c2cnn(C)c2)c1=O
no (0)
